# Assay: E. coli growth modulation, two-sided OD650, primary screen, E. coli filamentation project, strain DRC41, 24 h (AID 1093);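 also: MC1000 strain lacking acrAB efflux and sulA so SOS filamentation is blocked; test concentration not given here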
# Test Context: OD650, 24 h, higher = more signal, called active from +8 up or from −8 down
Would you kindly list z-score for each of these molecules?
Numbers only.

Please review the following examples before continuing.
CC(C)[C@H]1NC(=O)[C@@]23C(=O)N[C@@H](Cc4ccccc4)C2[C@H](C)[C@@]2(C)O[C@H]2C3/C=C/C/C=C\CNC(=O)[C@H](C)NC1=O (some centres not stated) : -0.823
COCCOC(=O)N1C(=O)[C@@]2(c3cc(C#CCNC(N)=O)ccc31)[C@H](c1ccccc1OCCO)N1[C@H](c3ccccc3)[C@H](c3ccccc3)OC(=O)[C@H]1[C@@H]2C(=O)NC[C@H](O)c1ccccc1 : 0.589
COCCCNC(=O)[C@@]1(Sc2ccc(C)cc2)CC(=O)N(Cc2cc(C(F)(F)F)cc(C(F)(F)F)c2)[C@@H]1c1ccc(CO)cc1I : 0.486
CO[C@@H]1COC(=O)[C@@H]2CCCN2C(=O)CC=C[C@@H](C)[C@H](OC)COC(=O)[C@@H]2CCCN2C(=O)CC=C[C@H]1C : 1.1
CCC1=C2CN(Cc3ccccc3Br)[C@@H]([C@@H](O)Cc3ccccc3)C2C=CCC1 (some centres not stated) : 0.777

Below are 2 molecules. Give each one its z-score.
1. O=C1O[C@H](c2ccccc2)[C@H](c2ccccc2)N2[C@H]1[C@@H](C(=O)NC[C@H](O)c1ccccc1)[C@]1(C(=O)Nc3ccc(C#CC4=CCCCC4)cc31)[C@H]2c1ccc(OCCO)cc1
2. COc1ccc(C(O)C2C=CC3C(=O)N(C)C(=O)C3N2N2CCCCC2)cc1OCc1ccccc1 (configuration not stated)

Response line:
1: -0.422; 2: -1.23

Data origin: PubChem BioAssay
